- experimental-details: Half life in po dosed mouse
- Assay type: ADME, organism-based
- test-settings: in vivo
value-kind: half-life (h)
Respond numerically; units are h and should not be typed.

stdin: Field request: half-life | item: CCc1cc(COc2cc(C(=O)N3CCC[C@@H](N)C3)nn2-c2ccc(C#N)cc2)on1
stdout: 1.3

====

Below, each entry is listed with its recorded half-life.
- experimental-details: Half life in mouse hepatocytes
- Format: ADME, cell-based, Hepatocyte
Report the value in h with no unit label.

stdin: Any idea what half-life was measured for Cc1cc(COc2cc(C(=O)N3CCC[C@@H](N)C3)nn2-c2ccc(C#N)cc2)on1 ?
stdout: 1.13

We next turn to a different molecule, shown below.
stdin: What value of half-life has been reported for the following molecule? CCc1cc(COc2cc(C(=O)N3CCC[C@@H](N)C3)nn2-c2ccc(C#N)cc2)on1
stdout: 2.02

====

We begin with a simple list: items and their reported Papp A→B.
- experimental-details: Apparent permeability of the compound across apical side to basolateral side in human Caco2 cells
- Type: ADME, cell-based
- test-settings: Caco-2

stdin: # lookup: Papp A→B of Cc1cc(COc2cc(C(=O)N3CCC[C@@H](N)C3)nn2-c2ccc(C#N)cc2)on1
stdout: 0.73 ×10⁻⁶ cm/s

stdin: And the next one, N#Cc1ccc(-n2nc(C(=O)N3CCC[C@@H](N)C3)cc2OCC(O)C(F)(F)F)cc1 (stereo partly drawn) ?
stdout: < 0.1 ×10⁻⁶ cm/s

Please examine the following record next.
stdin: Record request: Papp A→B value, item CCc1cc(COc2cc(C(=O)N3CCC[C@@H](N)C3)nn2-c2ccc(C#N)cc2)on1
stdout: 0.415 ×10⁻⁶ cm/s

====

- assayed-target: Voltage-gated inwardly rectifying potassium channel KCNH2 (Homo sapiens, UniProt Q12809)
- Sequence (Q12809 whole entry): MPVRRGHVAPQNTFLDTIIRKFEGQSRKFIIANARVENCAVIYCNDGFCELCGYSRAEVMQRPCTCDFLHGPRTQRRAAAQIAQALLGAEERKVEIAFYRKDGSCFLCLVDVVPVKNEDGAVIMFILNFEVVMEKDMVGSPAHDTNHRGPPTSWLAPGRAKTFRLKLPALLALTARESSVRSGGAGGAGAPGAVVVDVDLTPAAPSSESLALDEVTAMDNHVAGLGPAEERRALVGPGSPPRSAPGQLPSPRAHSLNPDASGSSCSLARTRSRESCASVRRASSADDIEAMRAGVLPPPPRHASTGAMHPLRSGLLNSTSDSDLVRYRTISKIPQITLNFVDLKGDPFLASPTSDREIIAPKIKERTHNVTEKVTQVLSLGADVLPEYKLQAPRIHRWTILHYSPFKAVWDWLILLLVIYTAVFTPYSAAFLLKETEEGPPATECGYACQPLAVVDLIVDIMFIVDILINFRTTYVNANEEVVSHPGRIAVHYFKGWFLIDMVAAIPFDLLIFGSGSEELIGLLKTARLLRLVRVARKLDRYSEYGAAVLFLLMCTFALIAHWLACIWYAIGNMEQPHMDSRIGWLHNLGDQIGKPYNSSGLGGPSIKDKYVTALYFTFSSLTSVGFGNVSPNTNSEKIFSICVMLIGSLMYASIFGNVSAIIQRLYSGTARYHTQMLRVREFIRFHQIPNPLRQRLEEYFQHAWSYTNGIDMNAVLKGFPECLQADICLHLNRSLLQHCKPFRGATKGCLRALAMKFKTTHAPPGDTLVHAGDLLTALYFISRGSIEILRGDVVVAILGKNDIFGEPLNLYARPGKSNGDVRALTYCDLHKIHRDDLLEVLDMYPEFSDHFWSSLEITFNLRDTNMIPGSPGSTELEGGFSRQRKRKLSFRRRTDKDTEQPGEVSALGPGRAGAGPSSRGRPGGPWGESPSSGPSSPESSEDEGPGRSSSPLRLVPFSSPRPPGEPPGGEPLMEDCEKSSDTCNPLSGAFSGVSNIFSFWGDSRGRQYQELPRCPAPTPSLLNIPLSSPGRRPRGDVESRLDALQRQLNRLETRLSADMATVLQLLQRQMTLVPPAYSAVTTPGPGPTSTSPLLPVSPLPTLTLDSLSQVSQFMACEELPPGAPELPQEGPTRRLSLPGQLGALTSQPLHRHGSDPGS
- experimental-details: Inhibition of human ERG by patch clamp assay
value-kind: IC50 (µM)
Write down the numeric answer in µM and omit the unit.

stdin: Need IC50 of Cc1ccc(-c2ncc(OC[C@H]3CCNC3)cc2-c2ccc(C#N)cc2)cc1 , thanks.
stdout: 3

====

- experimental-details: Clearance in mouse
- Type: ADME, organism-based
- test-settings: in vivo
value-kind: clearance (mL/min/kg)
Field: numeric (mL/min/kg). Do not append units.

stdin: Need clearance of CCc1cc(COc2cc(C(=O)N3CCC[C@@H](N)C3)nn2-c2ccc(C#N)cc2)on1 , thanks.
stdout: 45.7

====

- experimental-details: Volume of distribution in mouse
- Format: ADME, organism-based
- test-settings: in vivo
value-kind: Vd (L/kg)
Write it as a number; the unit L/kg goes unstated.

stdin: Which Vd value is on record for CCc1cc(COc2cc(C(=O)N3CCC[C@@H](N)C3)nn2-c2ccc(C#N)cc2)on1 ?
stdout: 3.1

Data origin: ChEMBL document CHEMBL4020789
